TEST DETAILS: HILIC, Waters ACQUITY UPLC BEH Amide, 100 × 2.1 mm, 1.7 µm; A: water + 0.125% formic acid + 10 mM ammonium formate; B: 5% water + 95% acetonitrile + 0.125% formic acid + 10 mM ammonium formate; gradient (min/%B) 0/100 2/100 7.7/70 9.5/40 10.25/30 12.75/100 17/100
CONDITION CONTEXT: stereoisomer not certain
Listing: LC retention time of selected compounds
A complete answer gives the number followed by the unit.

Solved cases (10 shown):
LC retention time in this record for NC(CSSCC(N)C(=O)O)C(=O)O (centres undefined) : 9.97 min

The compound identified as NC(N)=NCCCC(=O)O registered its LC retention time at 7.72 min

get_value(item= CC(C)C(N)C(=O)OCCOCn1cnc2c(=O)[nH]c(N)nc21 (centres undefined) , readout=LC retention time) returns 6.83 min

Given item C[N+](C)(C)C(Cc1c[nH]c(=S)[nH]1)C(=O)[O-] (centres undefined) , the value recorded as its LC retention time is 7.74 min

Item: CC(=O)NCCc1cnc[nH]1 | LC retention time: 6 min

Measured LC retention time of Cn1c[n+](C2OC(CO)C(O)C2O)c2nc(N)nc([O-])c21 (centres undefined) : 7.34 min

Entry Cc1nnc2n1-c1ccc(Cl)cc1C(c1ccccc1Cl)=NC2 — recorded LC retention time = 1.3 min

Field LC retention time (entry NC(CC(=O)O)c1ccc(O)cc1 (centres undefined) [3-Amino-3-(4-hydroxyphenyl)propionic acid] ) reads 7.42 min

compound CC(C)CC(NC(=O)CN)C(=O)O (centres undefined) , LC retention time observed: 8.14 min

Entry CCCCCCCCCCCCCCCC(=O)OC(CO)CO — recorded LC retention time = 0.99 min

New cases:
For CC1(C)CC1C(=O)NC(=CCCCCSCC(N)C(=O)O)C(=O)O (centres undefined) the compound record lists LC retention time as 7.63 min

The compound listed as Nc1ncnc2c1ncn2C1OC(COP(=O)(O)O)C(O)C1O (centres undefined) [Adenosine 5'-monophosphate] has a reported LC retention time of 8.88 min

Form: compound = CCC(=O)NCC(=O)O ; LC retention time = 5.37 min

Entry CCc1c2c(nc3ccc(OC(=O)N4CCC(N5CCCCC5)CC4)cc13)-c1cc3c(c(=O)n1C2)COC(=O)C3(O)CC (centres undefined) ; LC retention time = 5.03 min

GET /value?item= CCCCCC(O)CC (centres undefined) &field=LC retention time returns 8.47 min

For this compound ( O=C1Nc2ccc(Cl)cc2C(c2ccccc2)=NC1O (centres undefined) ), measured LC retention time is 1.37 min

* * *

TEST DETAILS: HILIC, Waters ACQUITY UPLC BEH Amide, 100 × 2.1 mm, 1.7 µm; A: water + 0.125% formic acid + 10 mM ammonium formate; B: 5% water + 95% acetonitrile + 0.125% formic acid + 10 mM ammonium formate; gradient (min/%B) 0/100 2/100 7.7/70 9.5/40 10.25/30 12.75/100 17/100
CONDITION CONTEXT: stereoisomer not certain
ENDPOINT NAME: LC retention time (min)
Hi! Could you send only the number? It should be in min, unit omitted.

Below: 10 compounds and their reported LC retention time.
Noted for CN(C)C(CCCN=C(N)N)C(=O)O (configuration not stated) : its LC retention time reads 9.1

O=C(O)C1CSCN1 (configuration not stated) yielded LC retention time of 6.92

Data point: Nc1nc2ccc(OC(F)(F)F)cc2s1 ; LC retention time = 1.03

The compound listed as CC(=O)OC1(C(C)=O)CCC2C3C=C(C)C4=CC(=O)CCC4(C)C3CCC21C (configuration not stated) [Megestrol Acetate] shows LC retention time equal to 0.96

Quick note, LC retention time for O=c1ncc(F)c[nH]1 landed at 1.77

The compound listed as CN1CCC23CCCCC2C1Cc1ccc(O)cc13 (configuration not stated) shows LC retention time equal to 3.87

# compound Cc1cnc(=O)[nH]c1N ; its LC retention time = 6.62

Sure, the documented LC retention time for C[N+](C)(C)CCO [Choline [M]+] is 5.18

// sample COc1ccccc1N1CCN(CC(O)COc2cccc3ccccc23)CC1 (configuration not stated) , its LC retention time was 1.99

Noted for O=c1[nH]c(=O)n(C2CCCO2)cc1F (configuration not stated) : its LC retention time reads 1.22

Continuing:
The reported value for O=P(O)(O)OCC1OC(O)C(O)C(O)C1O (configuration not stated) [Glucose-6-phosphate] in terms of LC retention time is 9.86

compound Cc1cccc(C)c1NC(=O)C1CCCCN1C (configuration not stated) [Mepivacaine] , LC retention time observed: 2.96

Kindly note the recorded LC retention time for NCCCCNCCCN , which is 6.98

Form: compound = C[C@](N)(Cc1cnc[nH]1)C(=O)O ; LC retention time = 8.68

For reference, reported LC retention time for OCC1OC(O)C(O)C(O)C1O (configuration not stated) stands at 1.84

Lab note: measured LC retention time of Cc1ccc(C(C)C)c(O)c1 was 1.53

For this compound ( CN(C)CCOC(C)(c1ccccc1)c1ccccn1 (configuration not stated) ), measured LC retention time is 2.45

Record COc1ccc2c3c1OC1C(=O)CCC4C(C2)N(C)CCC314 (configuration not stated) [Hydrocodone] , field LC retention time: 3.8

Item: NC(CCO)C(=O)O (configuration not stated) | LC retention time: 8.29
